Provenance of the data: ChEMBL document CHEMBL1201862

Tested on: A549
ASSAY_PROTOCOL: NCI tumour cell line growth inhibition, 48 h
Activity calls are given as the source filed them. Cut-off read from the data, not from the text of the source: active = GI50 up to about 1.1 µM and inactive = higher.
READOUT: GI50

Consider the following illustrative entries.
- COMPOUND: "O=S(=O)(/C=C/c1ccc(F)cc1)Cc1ccc(CS(=O)(=O)/C=C/c2ccc(F)cc2)cc1"
  GI50: "> 100 µM (inactive)"
- COMPOUND: "CSc1nc(SC)c2c(C)c(Br)[nH]c2n1"
  GI50: "> 100 µM (inactive)"
- COMPOUND: "COC(=O)/C(C#N)=C/c1cc(C(C)(C)C)c(O)c(C(C)(C)C)c1"
  GI50: "2.64 µM (inactive)"
- COMPOUND: "CC1CC[C@@]23CCC4(C)[C@@](C=CC5[C@@]6(C)CCC(=O)C(C)(C)C6CC[C@]54C)(OC2=O)[C@@H]3[C@H]1C (stereo not given in full)"
  GI50: "6.93 µM (inactive)"

Could you now look at the following compound, please?
Any idea what GI50 was measured for `COc1ccc(CC/N=C2\OCc3ccccc32)cc1OC` ?
46.3 µM (inactive)

----------
Test system: HCT-15
Labelling field: enter yes (1) if recorded GI50 is less than 20 µM. Enter no (0) if it equals or exceeds that cut-off.

- COMPOUND: "CN(C)c1ccc(/C=C/C=C\\c2cc(/C=C/C=C/c3ccc(N(C)C)cc3)[s+]c3ccccc23)cc1.[O-][Cl+3]([O-])([O-])[O-]"
  ASSAYED_TARGET: "HCT-15"
  CLASS_ASSIGNMENT: "no (0)"
- COMPOUND: "Fc1cccc(F)c1C1SCC2=Nc3ccccc3CN21 (centres undefined)"
  ASSAYED_TARGET: "HCT-15"
  CLASS_ASSIGNMENT: "no (0)"
- COMPOUND: "C[C@H]1SC(c2ccc(Cl)cc2Cl)N(NC(=O)c2ccncc2)C1=O (some centres undefined)"
  ASSAYED_TARGET: "HCT-15"
  CLASS_ASSIGNMENT: "no (0)"
- COMPOUND: "S=C(Nc1ccc(Cl)cc1)SC1CCCCC1"
  ASSAYED_TARGET: "HCT-15"
  CLASS_ASSIGNMENT: "no (0)"
- COMPOUND: "C=CC(=C)CCC(Br)C(C)(C)Cl (centres undefined)"
  ASSAYED_TARGET: "HCT-15"
  CLASS_ASSIGNMENT: "no (0)"
- COMPOUND: "CC12CCC[C@@](C)(C(=O)OC3OC(CO)C(O)C(O)C3O)[C@H]1CCC13CC4CC(OC4(CO)[C@H]1O)[C@@H]23 (some centres undefined)"
  ASSAYED_TARGET: "HCT-15"
  CLASS_ASSIGNMENT: "no (0)"

Strictly below 20 µM in GI50? COc1ccc(C2c3cc(OC)c(OC)cc3C(Cc3ccc([N+](=O)[O-])cc3)C2c2ccc([N+](=O)[O-])cc2)cc1OC (centres undefined)
no (0)

Try `CN1CCN(CCCCN2c3ccccc3Sc3ccc(N=[N+]=[N-])cc32)CC1` next.
yes (1)

Queued: CC(=O)Oc1c(C)c2c(c3ncccc13)OC(C)C2 (centres undefined)
yes (1)

----------
System: IGROV-1
ASSAY_PROTOCOL: NCI tumour cell line growth inhibition, 48 h
Active and inactive are the calls of the source. Rule as the data show it: active = GI50 up to about 1.1 µM and inactive = higher.
What GI50 was measured for each of the following?

- COMPOUND: "N[C@@H](CCC(=O)NC(Cc1ccccc1)C(=O)NCP(=O)(O)O)C(=O)O (stereo partly drawn)"
  READOUT: "GI50"
  OBSERVED_VALUE: "> 100 µM (inactive)"
- COMPOUND: "Cc1nn(C(=O)c2ccc(Cl)cc2)c2c1C(/C=C/c1ccccc1)SC(=N)N2 (stereo not drawn)"
  READOUT: "GI50"
  OBSERVED_VALUE: "> 10 µM (inactive)"
- COMPOUND: "CCOC(=O)c1nnsc1NC(=O)Nc1ccc(Cl)cc1"
  READOUT: "GI50"
  OBSERVED_VALUE: "31 µM (inactive)"
- COMPOUND: "O=C(CO[N+](=O)[O-])OC/C=C/c1ccccc1"
  READOUT: "GI50"
  OBSERVED_VALUE: "> 100 µM (inactive)"
- COMPOUND: "COCc1nc2c(OC)c(-c3nc4ccc(N5CCN(C)CC5)nc4[nH]3)cc(OC)c2[nH]1"
  READOUT: "GI50"
  OBSERVED_VALUE: "> 100 µM (inactive)"
- COMPOUND: "COc1ccc(-c2nc3ccc(C)cc3o2)c(OC)c1"
  READOUT: "GI50"
  OBSERVED_VALUE: "20.8 µM (inactive)"
- COMPOUND: "CCOC(=O)/C(=C\\c1c[nH]c2ccccc12)P(=O)(OCC)OCC"
  READOUT: "GI50"
  OBSERVED_VALUE: "39 µM (inactive)"
- COMPOUND: "Cc1c(/N=C/C=C/c2ccccc2)c(=O)n(-c2ccccc2)n1C"
  READOUT: "GI50"
  OBSERVED_VALUE: "33.7 µM (inactive)"
- COMPOUND: "COC(=O)N1CC[C@@H]2CCC=C(c3cccc4c3OCO4)[C@@H]21"
  READOUT: "GI50"
  OBSERVED_VALUE: "> 100 µM (inactive)"
- COMPOUND: "CC1=C(SCc2ccccc2)C(=O)c2ccccc2C1=O"
  READOUT: "GI50"
  OBSERVED_VALUE: "12 µM (inactive)"

Batch lookup, GI50 per entry.
1. C=CC(=C)CCC(Br)C(C)(C)Cl (stereo not drawn)
2. CCOC(=O)c1c(NS(=O)(=O)c2ccc(Br)cc2)sc2c1CCCC2

> 100 µM (inactive)
4.21 µM (inactive)

For each entry beneath this line, provide reported GI50.
1. C[C@@H](NC(=O)Nc1cccc(C(=O)Nc2cc(C(C)(C)C)ccc2C(=O)O)n1)c1ccccc1
2. Cc1ccc([N+](=O)[O-])cc1S(=O)(=O)Nc1ccc(C(=O)/C=C/c2cccs2)cc1
3. Oc1ccc(Cl)cc1/C=N/c1cnc2ccccc2c1

1. 37.9 µM (inactive)
2. 36.6 µM (inactive)
3. 16 µM (inactive)

Batch request: GI50 per item, same order as input.
1. O=C(Nc1ccccc1)c1cc(S(=O)(=O)n2ccnc2O)c(S)cc1Cl
2. CN(C)CCNc1ccc2ncn3c4ccccc4c(=O)c1c23
3. NC(=O)c1ccc(Cl)c([N+](=O)[O-])c1

["> 100 µM (inactive)", "2.42 µM (inactive)", "> 100 µM (inactive)"]

Count: 5. Required value per item: GI50.
1. O=C(O)C1(Cc2ccccc2)Cc2ccccc2C1
2. O=C(CC(=O)C1CCOC1=O)C(=O)Nc1cccc(Cl)c1 (stereo not drawn)
3. CCOC(=O)c1oc2ccc([N+](=O)[O-])c3c2c1CCC3
4. COc1ccccc1C1ON=C(c2ccc([N+](=O)[O-])cc2)N1C12CC3CC(CC(C3)C1)C2 (stereo not drawn)
5. CCCCCCCCCCCCCCCCOc1ccc(/C=C/C2=[N+](CCCl)CCO2)cc1

> 100 µM (inactive)
> 100 µM (inactive)
57.9 µM (inactive)
> 100 µM (inactive)
61.2 µM (inactive)
